Hello, the source for this data is patent US8487121B2, in case you need it.

Target: Human TRPV3 (Homo sapiens, UniProt Q8NET8)
Construct: expressed in transfected cells; host or cells: CHO cells (G-418 selected)
Sequence (Q8NET8 whole entry): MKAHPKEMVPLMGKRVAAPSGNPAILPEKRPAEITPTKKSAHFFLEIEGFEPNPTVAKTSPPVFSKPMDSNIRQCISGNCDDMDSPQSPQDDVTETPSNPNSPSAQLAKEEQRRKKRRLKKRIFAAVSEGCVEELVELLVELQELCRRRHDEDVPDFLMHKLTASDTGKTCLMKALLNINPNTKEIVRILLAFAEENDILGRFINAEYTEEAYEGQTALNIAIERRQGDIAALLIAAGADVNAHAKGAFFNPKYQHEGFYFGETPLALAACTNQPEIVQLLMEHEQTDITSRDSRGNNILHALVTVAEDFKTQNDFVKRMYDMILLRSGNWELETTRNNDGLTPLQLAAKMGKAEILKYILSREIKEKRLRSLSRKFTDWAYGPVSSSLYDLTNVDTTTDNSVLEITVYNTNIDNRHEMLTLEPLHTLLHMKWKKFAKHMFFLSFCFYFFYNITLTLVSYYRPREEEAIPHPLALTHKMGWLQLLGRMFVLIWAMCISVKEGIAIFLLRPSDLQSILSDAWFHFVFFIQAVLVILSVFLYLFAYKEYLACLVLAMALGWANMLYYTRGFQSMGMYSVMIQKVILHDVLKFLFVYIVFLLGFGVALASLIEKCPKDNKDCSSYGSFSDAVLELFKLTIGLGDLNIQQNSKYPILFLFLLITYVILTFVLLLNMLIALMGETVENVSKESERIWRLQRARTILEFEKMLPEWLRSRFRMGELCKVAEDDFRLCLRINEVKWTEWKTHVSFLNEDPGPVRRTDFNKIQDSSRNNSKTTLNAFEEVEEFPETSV
Experiment: 45Calcium uptake assay: inhibition of 2-APB induced cellular uptake of radioactive calcium
Assay type: cell-based
Conditions: 1.0 μM compound; human TRPV3 expressing CHO cells; 2-APB 500 μM; read-out: Percentage inhibition at 1.0 μM
MEASURED_PARAMETER: inhibition at 1 µM

COMPOUND	ASSAY_SYSTEM	inhibition at 1 µM
COc1cc(CCC(=O)N[C@H]2CC3(CCC3)Oc3ccc(Cl)cc32)cc2cc(C)oc12 [Example 80]	Human TRPV3 (Homo sapiens, UniProt Q8NET8)	73.5%

For the compound shown here, O=C(CCc1ccccc1OC1CCCC1)N[C@@H]1CC2(CCC2)Oc2c(Cl)cccc21 [Example 31] , give the reported inhibition at 1 µM.
78.6%

Entry COc1cccc(CCC(=O)NC2CC3(CCC3)Oc3cccc(OCc4ccccc4)c32)c1OC1CCCC1 (stereo not shown) [Example 50] please
52.8%

Likewise for O=C(CCc1cccc(OC2CCCC2)c1)N[C@H]1CC2(CCC2)Oc2ccc(Cl)cc21 [Example 30] ?
46.8%

Next compound: O=C(CC1CCCc2ccccc21)NC1CC2(CCC2)Oc2ccc(Cl)cc21 (stereo not shown) [Example 21]
63.5%

Ok, now CS(=O)(=O)Nc1cccc(CCC(=O)NC2CC3(CCC3)Oc3c(Cl)cc(Cl)cc32)c1OCC1CC1 (stereo not shown) [Example 64]
37.6%

Next: COc1cccc(CC(=O)NC2CC3(CCC3)Oc3ccc(Cl)cc32)c1OC1CCCC1 (stereo not shown) [Example 4]
37.2%

O=C(CCc1cccc(OC2CCCC2)c1)N[C@@H]1CC2(CCC2)Oc2ccc(Cl)cc21 [Example 29] ?
43.6%

Same lookup for COc1cccc(CCC(=O)NC2CC3(CCC3)Oc3c(Cl)cc(Cl)cc32)c1OCCN(C)C (stereo not shown) [Example 60] , please.
1.2%

Now consider O=C(Cc1cccc2ccccc12)N[C@H]1CC2(CCC2)Oc2ccc(Cl)cc21 [Example 13] and answer again.
5.9%

Same read-out for COc1cccc(CCC(=O)NC2CC3(CCC3)Oc3ccc(Cl)cc32)c1OC(C)C (stereo not shown) [Example 39] ?
73.8%

What do you get for COc1cccc(CC(=O)N[C@@H]2CC3(CCC3)Oc3c(Cl)cccc32)c1OC1CCCC1 [Example 5] ?
11.7%

Could you do the same for COc1ccc2ccccc2c1CCC(=O)N[C@H]1CC2(CCC2)Oc2ccc(Cl)cc21 [Example 68] , please?
70.6%
